TEST_TARGET: Bifunctional protein GlmU (Mycobacterium tuberculosis (strain ATCC 25618 / H37Rv)) (UniProt P9WMN3)
Sequence (P9WMN3 whole entry, looked up): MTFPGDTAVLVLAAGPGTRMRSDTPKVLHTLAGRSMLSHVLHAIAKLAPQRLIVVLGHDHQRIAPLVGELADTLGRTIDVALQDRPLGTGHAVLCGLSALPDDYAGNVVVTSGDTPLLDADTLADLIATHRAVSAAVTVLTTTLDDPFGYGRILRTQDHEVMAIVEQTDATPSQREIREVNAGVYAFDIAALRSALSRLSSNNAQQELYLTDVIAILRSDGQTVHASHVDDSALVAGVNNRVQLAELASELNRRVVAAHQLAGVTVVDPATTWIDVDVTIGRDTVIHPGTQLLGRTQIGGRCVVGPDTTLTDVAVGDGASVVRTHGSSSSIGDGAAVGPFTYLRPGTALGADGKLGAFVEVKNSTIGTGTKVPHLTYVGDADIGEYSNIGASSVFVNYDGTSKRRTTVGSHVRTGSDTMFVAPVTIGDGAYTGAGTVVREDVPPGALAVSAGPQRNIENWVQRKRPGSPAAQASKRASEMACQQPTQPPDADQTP
EXPERIMENT_NOTES: inhibition of mycobacterial GlmU enzyme – biochemical, glucosamine-1-phosphate acetyltransferase (AID 1376);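 note: 0% = complete reaction with vehicle and 100% = reaction without substrate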
CONDITION_SET: M. tuberculosis GlmU acetyltransferase enzyme assay;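 tested at 30 µM in the primary screen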
The whole screen tested about 220,000 compounds, of which about 530 (0.24%) were called active. Cut-off read from the data, not from the text of the source: active = inhibition above about 13%; inconclusive = no clear call, values can overlap the other calls; inactive = below that. This excerpt belongs to a sample that is enriched for actives. Results with a measured potency or affinity are listed apart.
Possible outcomes: true for active, false for inactive

MOLECULE: CCC(C)(C)NC(=O)C(c1ccccc1)N(Cc1cccnc1)C(=O)c1csnn1 (stereo not given)
LABEL: false

MOLECULE: CCCCCCCCCCCC1=C(O)C(=O)C=C(O)C1=O
LABEL: false

MOLECULE: Cc1coc(NC(=O)CSc2nc(-c3ccncc3)cc(C(F)(F)F)c2C#N)n1
LABEL: false

MOLECULE: COc1cc(Nc2ncnc(N)n2)cc(OC)c1OC
LABEL: false

MOLECULE: CCN(CC)c1ccc(C=C2C(=O)OC3(CCCC3)OC2=O)cc1
LABEL: false

MOLECULE: COC1=CC(=O)C(O)=C(CCCCCCC/C=C/CCCCCCCC2=C(O)C(=O)C=C(OC)C2=O)C1=O
LABEL: true

MOLECULE: CCN1CCN(c2cc(C)c3cc(NC(=O)c4ccccc4F)ccc3n2)CC1
LABEL: false

MOLECULE: Cc1cccc2cc(/C=N/NC(=O)[C@H]3C[C@@H]3c3ccccc3)c(Cl)nc12
LABEL: false

MOLECULE: COc1cc(CNn2cn[nH]c2=S)cc(Cl)c1OCc1ccccc1
LABEL: false

MOLECULE: Cc1cc(/C=N/NC(=O)c2cccc([N+](=O)[O-])c2)c(C)n1-c1ccccc1
LABEL: false

----------
Consider the following molecules and their measured inhibition readings.
TEST_TARGET: Bifunctional protein GlmU (Mycobacterium tuberculosis (strain ATCC 25618 / H37Rv))
EXPERIMENT_NOTES: inhibition of mycobacterial GlmU enzyme – biochemical, glucosamine-1-phosphate acetyltransferase (AID 1376);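 note: 0% = complete reaction with vehicle and 100% = reaction without substrate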
CONDITION_SET: M. tuberculosis GlmU acetyltransferase enzyme assay; stronger effect = higher value;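 tested at 30 µM in the primary screen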
The campaign covered roughly 220,000 compounds. About 530 (0.24%) were called active. What follows is part of a selection rich in actives, with near analogues and random picks from the rest. Entries with a potency or affinity are not part of this list.

MOLECULE: Cc1ccc(NC(=O)CSc2nnc(-c3ccco3)c(-c3ccco3)n2)cc1
TEST_TARGET: Bifunctional protein GlmU (Mycobacterium tuberculosis (strain ATCC 25618 / H37Rv))
inhibition / %: 6.2
//
MOLECULE: O=C1NC(=S)S/C1=C\c1coc2ccccc2c1=O
TEST_TARGET: Bifunctional protein GlmU (Mycobacterium tuberculosis (strain ATCC 25618 / H37Rv))
inhibition / %: 5.72
//
MOLECULE: C/C(=N\N=C1\NC(=O)C(Cc2ccccc2)S1)c1ccccc1 (stereo unspecified)
TEST_TARGET: Bifunctional protein GlmU (Mycobacterium tuberculosis (strain ATCC 25618 / H37Rv))
inhibition / %: 2.56
//
MOLECULE: CC(=O)c1ccc(NC(=O)CSc2nnc(-c3ccco3)c(-c3ccco3)n2)cc1
TEST_TARGET: Bifunctional protein GlmU (Mycobacterium tuberculosis (strain ATCC 25618 / H37Rv))
inhibition / %: 9.28
//
MOLECULE: O=C(CSc1nnc(-c2ccco2)c(-c2ccco2)n1)Nc1ccccc1
TEST_TARGET: Bifunctional protein GlmU (Mycobacterium tuberculosis (strain ATCC 25618 / H37Rv))
inhibition / %: 13.4
//
MOLECULE: O=C(CSc1nnc(-c2ccco2)c(-c2ccco2)n1)c1ccccc1
TEST_TARGET: Bifunctional protein GlmU (Mycobacterium tuberculosis (strain ATCC 25618 / H37Rv))
inhibition / %: 0.16
//
MOLECULE: FC(F)(F)c1ccccc1NC(=S)N/N=C1\CC2CC=CC12 (stereo unspecified)
TEST_TARGET: Bifunctional protein GlmU (Mycobacterium tuberculosis (strain ATCC 25618 / H37Rv))
inhibition / %: -4.32
//
MOLECULE: COc1ccc(C(=O)CSc2n[nH]c(-c3ccco3)n2)cc1
TEST_TARGET: Bifunctional protein GlmU (Mycobacterium tuberculosis (strain ATCC 25618 / H37Rv))
inhibition / %: 4.52
//
MOLECULE: O=C(c1cc(-c2ccc(Cl)cc2)on1)N1CCOCC1
TEST_TARGET: Bifunctional protein GlmU (Mycobacterium tuberculosis (strain ATCC 25618 / H37Rv))
inhibition / %: 3.17
//
MOLECULE: Cc1cccc(C)c1NC(=S)N/N=C1\CC2CC=CC12 (stereo unspecified)
TEST_TARGET: Bifunctional protein GlmU (Mycobacterium tuberculosis (strain ATCC 25618 / H37Rv))
inhibition / %: 14.2
//
MOLECULE: COc1ccc(C(=O)CSc2nnc(-c3ccco3)c(-c3ccco3)n2)cc1
TEST_TARGET: Bifunctional protein GlmU (Mycobacterium tuberculosis (strain ATCC 25618 / H37Rv))
inhibition / %: 12.8
